Test system: Huh-7
Assay: Antiproliferative activity against human HuH7 cells after 72 hrs by SRB assay
Type: functional, cell-based
Conditions: Homo sapiens, Huh-7, 72 h; read-out: IC50
reported-metric: IC50 (µM)
Dear colleague, please return just the value in µM, with no unit written.

molecule="O=c1[nH]cc(F)c(=O)[nH]1 [FLUOROURACIL]" value_observed=30
molecule=OC[C@H]1O[C@@H](n2cnc3c(NCCC4=CCCCC4)nc(Cl)nc32)[C@H](O)[C@@H]1O value_observed=20

The molecule listed as CN(C)c1ccc(Nc2ncnc3c2ncn3[C@@H]2O[C@H](CO)[C@@H](O)[C@H]2O)cc1 shows IC50 equal to 80
